Tested on: NCI-H226 lung
Test: NCI-60 one-dose screen, 48 h (100 = growth as untreated, 0 = no growth, -100 = all killed)
Details: 10 µM unless noted
Protocol: Growth inhibition of the NCI-H226 human Non-Small Cell Lung tumor cell line is measured as a screen for anti-cancer activity. Cells are grown in 96 well plates and exposed to the test compound for 48 hours. Compounds are tested at a single concentration, which is 10^-5 M for most compounds. The reported endpoint is percent growth (GI% or GIPRCNT), where numbers from 0 - 100% represent growth inhibition, and numbers from -100% - 0 represent cell death. […]
This is part of a sample that, as a whole, favours compounds with a hit. Of some 83,000 tested, about 20% had one in any assay.
Listed here are compounds together with their documented growth.
Express your answer in %, writing the number without its unit.

- Compound: "O=C(Cn1cc(CN2C(=O)c3ccccc3S2(=O)=O)nn1)Nc1cccc(Cl)c1"
  Quantitative result: 117

Here is another compound to look at.
Answer with growth of C=CC(C)(O)CC/C=C(\CO)C(=O)OC1C(C)OC(O[C@](C)(C=C)CC/C=C(\CO)C(=O)O[C@H]2C[C@@]3(C(=O)OC4OC(CO)C(O)C(O)C4OC4OC(C)C(OC5OC(CO)C(O)C5O)C(OC5OC(CO)C(O)C(O)C5O)C4O)C(CC2(C)C)C2=CCC4[C@@]5(C)CC[C@H](OC6OC(COC7OC(C)C(O)C(O)C7OC7OCC(O)C(O)C7O)C(O)C(O)C6NC(C)=O)C(C)(C)C5CC[C@@]4(C)[C@]2(C)C[C@H]3O)C(O)C1O (some centres not stated) measured for NCI-H226 lung. 2.06

###

system: HT29 colon; assay: NCI-60 one-dose screen, 48 h (100 = growth as untreated, 0 = no growth, -100 = all killed); details: 10 µM unless noted
This is part of a sample that, as a whole, favours compounds with a hit. Of some 83,000 tested, about 20% had one in any assay.
Endpoint label: growth (%)
Express your answer in %, writing the number without its unit.

Please give measured growth of the following entry: c1ccc(CNc2ccc3nc(CCC4CCCCC4)[nH]c3c2)cc1 13.8

Please give measured growth of the following entry: O=C(Cn1cc(CN2C(=O)c3ccccc3S2(=O)=O)nn1)Nc1cccc(Cl)c1 109

Please give measured growth of the following entry: CCOC(=O)c1c(NC(=O)c2ccc(C(C)(C)C)cc2)sc2cc(O)ccc12 80.6

Please give measured growth of the following entry: CC(C)CCSc1nc(Nc2ccccc2)c(C#N)c(-c2ccccc2)n1 50.7

Please give measured growth of the following entry: COc1ccc(-c2cc(C(=O)N3N=C(c4ccc(N)cc4)CC3c3ccccc3)c3ccccc3n2)cc1 (centres undefined) 10.3

Please give measured growth of the following entry: CN(C)c1ccc(/C=C/C(=O)c2ccccc2)cc1 62.5

Please give measured growth of the following entry: N=C(N)c1ccc(-c2ccc(-c3ccc(Cl)cc3)o2)o1 -58.3

Please give measured growth of the following entry: Cc1[nH]c(/C=C/C(=O)c2ccc(C(F)(F)F)c(F)c2)c(C)c1C(=O)NCC(C)C 102

###

Listed here are molecules together with their documented growth.
tested on: 786-0 renal; assay: NCI-60 one-dose screen, 48 h (100 = growth as untreated, 0 = no growth, -100 = all killed); conditions: 10 µM unless noted
The panel holds about 83,000 compounds, 20% with a hit somewhere; the sample as a whole holds those more often.
Express your answer in %, writing the number without its unit.

Please review the entries below; each comes with its answer.
- Molecule: "COc1ccc2cc(-c3ccc(-c4ccc(C(=N)N)s4)s3)ccc2c1"
  growth, %: -53.6
- Molecule: "COC(=O)C1=Nc2ccc(F)cc2/C1=C\\c1sc(Nc2ccc(O)cc2)nc1O"
  growth, %: 66.1
- Molecule: "O=C(OC[C@@H]1CO1)c1cccc2c(=O)c3ccccc3[nH]c12"
  growth, %: -8.54
- Molecule: "CCN1C(=O)N(CC)C2C1NN=c1s/c(=C3\\C(=O)N(CCc4ccccc4)c4ccccc43)c(=O)n12 (stereo not given)"
  growth, %: 22.1

Here is another molecule to look at.
Answer with growth of CN(C)c1ccc(/C=C/C(=O)c2ccccc2)cc1 measured for 786-0 renal. 88.8

###

tested on: SNB-75 CNS; assay: NCI-60 one-dose screen, 48 h (100 = growth as untreated, 0 = no growth, -100 = all killed); details: 10 µM unless noted
The panel holds about 83,000 compounds, 20% with a hit somewhere; the sample as a whole holds those more often.
Class boundaries, taken from values of growth, are as follows: I (below 30%), II (30% to below 90%), III (90% or more)

Previously resolved entries follow.
- Molecule: "C#CC#CC#CC#CC#CC#CC#CC#CC[C@H]1OC[C@@H](COC(=O)O[C@@H](C(=O)O[C@H]2C[C@@]3(O)[C@@H](OC(=O)c4ccccc4)[C@@H]4[C@]5(OC(C)=O)CO[C@@H]5C[C@H](O)[C@@]4(C)C(=O)[C@H](OC(C)=O)C(=C2C)C3(C)C)[C@@H](NC(=O)c2ccccc2)c2ccccc2)O1"
  Qualitative label: "II"
- Molecule: "COc1ccc(Cc2cnc(NC(=O)c3sc4ccccc4c3Cl)s2)cc1"
  Qualitative label: "I"
- Molecule: "COc1ccc(/C=C/C(=O)c2ccc(NC(=O)CSc3nnc(-c4cc(-c5ccccc5)nc5ccccc45)n3-c3ccccc3)cc2)cc1"
  Qualitative label: "III"
- Molecule: "C[Se]C(=O)CC1=C2C=C(F)C=CC2/C(=C\\c2ccc(S(C)=O)cc2)C1C (stereo not drawn)"
  Qualitative label: "I"

Into which category would you place COc1cc(/C=C\c2cc(/C=C\c3ccc(O)c(OC)c3)n(C(=O)CNc3ccc(Cl)cc3)n2)ccc1O ? I

Into which category would you place COc1cc(/C=C2\C(=O)N(c3c(Cl)cccc3Cl)c3ccccc32)cc(OC)c1OCCCCCCn1c2ccccc2c(=O)c2ccccc21 ? II

Into which category would you place CN1C(=O)/C(=C/c2ccc(C(=O)Nc3ncc(Cc4ccc(F)cc4)s3)cc2)SC1=S ? II

Into which category would you place Cc1cscc(C)c1=S ? III

Into which category would you place COc1ccc(C2=NN(C(=O)c3cc(OC)c(OC)c(OC)c3)C(c3ccc(N(C)C)cc3)C2)cc1 (stereo not drawn) ? I

###

Listed here are molecules together with their documented growth.
test system: HS 578T breast; assay: NCI-60 one-dose screen, 48 h (100 = growth as untreated, 0 = no growth, -100 = all killed); conditions: 10 µM unless noted
Compounds without any hit were thinned out: in the full panel of roughly 83,000, 20% have a hit.
Express your answer in %, writing the number without its unit.

Please review the entries below; each comes with its answer.
- Molecule: "NC(=O)c1c(NC(=O)c2ccc(Cl)cc2)sc2c1CCC(=O)C2"
  Target desc: "HS 578T breast"
  growth, %: 64
- Molecule: "C[C@@H](CO)[C@@H]1CC[C@]2(C(=O)N3CCN(C)CC3)CC[C@]3(C)[C@H](CC[C@@H]4[C@@]5(C)CC[C@H](O)C(C)(C)[C@@H]5CC[C@]43C)[C@@H]12"
  Target desc: "HS 578T breast"
  growth, %: 85.2
- Molecule: "CC[C@@H](c1ccc2cc(OC)ccc2c1)C(C)(C)C(=O)F"
  Target desc: "HS 578T breast"
  growth, %: 91.8
- Molecule: "CC(=O)c1c(Nc2ccc(F)c(F)c2F)[nH]c2c(F)cc(F)cc2c1=O"
  Target desc: "HS 578T breast"
  growth, %: 4.13
- Molecule: "COc1cc(/C=C2\\CN(S(=O)(=O)c3ccc(C)cc3)C/C(=C\\c3cc(CN4CCCCC4)c(O)c(OC)c3)C2=O)cc(CN2CCCCC2)c1O"
  Target desc: "HS 578T breast"
  growth, %: -33.4

Please give measured growth of the following entry: CC1(C)O[C@H]2OC3CCC(=O)CC3(O)[C@H]2O1 (stereo partly drawn) 97

Please give measured growth of the following entry: C=C(CO)[C@@H]1CC[C@]2(COC3CCCCO3)CC[C@]3(C)[C@H](CC[C@@H]4[C@@]5(C)C=C(C=O)C(=O)C(C)(C)[C@@H]5CC[C@]43C)[C@@H]12 (stereo partly drawn) -52.3

Please give measured growth of the following entry: O=C(CN1C(=O)/C(=C/c2ccco2)SC1=S)NCCc1c[nH]c2ccc(F)cc12 95.9

###

tested on: SR leukemia; test: NCI-60 one-dose screen, 48 h (100 = growth as untreated, 0 = no growth, -100 = all killed); details: 10 µM unless noted
About 83,000 compounds went through this panel and 20% of them were active in at least one assay; those are over-represented in the sample as a whole. The source made the active and inactive calls. How the source made its calls: active means growth percent below 10; inactive means the rest.
Endpoint label: growth

- Compound: "C#CC#CC#CC#CC#CC#CC#CC#CCC1OCC(COC(=O)O[C@@H](C(=O)O[C@H]2C[C@@]3(O)[C@@H](OC(=O)c4ccccc4)[C@@H]4[C@]5(OC(C)=O)CO[C@@H]5C[C@H](O)[C@@]4(C)C(=O)[C@H](OC(C)=O)C(=C2C)C3(C)C)[C@@H](NC(=O)c2ccccc2)c2ccccc2)O1 (stereo partly specified)"
  growth: "12.4% (inactive)"
- Compound: "O=C1/C(=C/c2ccc(C(F)(F)F)cc2)COc2ccc(O)c(O)c21"
  growth: "3.77% (active)"
- Compound: "COc1cc(/C=C2\\CN(S(=O)(=O)c3ccc(C)cc3)C/C(=C\\c3cc(CN4CCCCC4)c(O)c(OC)c3)C2=O)cc(CN2CCCCC2)c1O"
  growth: "-14.6% (active)"
- Compound: "Cc1cc(N2CCN(C)CC2)nc(NCc2cc(Nc3ccnc4cc(Cl)ccc34)ccc2F)n1"
  growth: "-32% (active)"
- Compound: "O=c1oc2c(cnc3ccccc32)cc1-c1cccs1"
  growth: "103% (inactive)"
- Compound: "COc1cccc(Nc2ccnc3[nH]c4ccc([N+](=O)[O-])cc4c23)c1"
  growth: "31.5% (inactive)"
- Compound: "O=[N+]([O-])/C(=C\\c1ccco1)c1ccccc1Cl"
  growth: "55.3% (inactive)"
- Compound: "O=C(Nc1nc(C(=O)N2CCN(C(c3ccccc3)c3ccccc3)CC2)cs1)c1ccc(NC2CCCCC2)c([N+](=O)[O-])c1"
  growth: "90.2% (inactive)"
- Compound: "CCN(CC)c1ccc(/C=C\\c2cc(C)c3cc(C)ccc3n2)cc1"
  growth: "34.2% (inactive)"
- Compound: "Fc1ccc(COc2ccc(Nc3ncnc4sc5c(c34)CCCC5)cc2)cc1"
  growth: "95.8% (inactive)"

Please give measured growth of the following entry: COc1ccc(C2=CN3CC=CCC3CC2=O)cc1 (stereo unspecified) 90.3% (inactive)

Please give measured growth of the following entry: CC/C(Cc1ccccc1)=C(\c1ccc(OCCN2CCCCCC2)cc1)c1ccc(OC(=O)NCc2ccccc2)cc1 -21.1% (active)
